// provenance: patent US7507727B2

- Tested on: HeLa cells
- METHOD_DESCRIPTION: MTS cell proliferation and/or cytotoxicity assay
- Format: cell-based, Human
- MEASUREMENT_SETUP: Homo sapiens, HeLa, 72 h, concentration at which 50% of antiproliferative cell response is seen; 3 days incubation; read-out: MTS Data Hella
MEASUREMENT_NAME: pIC50
Keep in mind that pIC50 stands for -log10 of concentration in molar terms.

Recorded results for 5 molecules are shown here.
>>> value("O=C(NCCN1CCCC1)c1cn2c3c(c(NCCN4CCCC4)c(F)cc3c1=O)Oc1cc3c(cc1-2)oc1ccccc13 [compound 477]")
5.68
>>> value("CN(C)CCCCNC(=O)c1cn2c3c(c(N4CC[C@H](N)C4)c(F)cc3c1=O)Oc1cc3ccccc3cc1-2 [compound 475]")
6.62
>>> value("O=C(CCN1CCCCC1)N[C@@H]1CCN(c2c(F)cc3c(=O)c(C(=O)NCCN4CCCC4)cn4c3c2Oc2cc3c(cc2-4)oc2ccccc23)C1 [compound 308]")
5.51
>>> value("CN(CCc1ccccn1)C(=O)c1cn2c3c(c(NCCCN4CCOCC4)c(F)cc3c1=O)Oc1cc3c(cc1-2)-c1ccccc1C3 [compound 307]")
5.51
>>> value("N[C@@H]1CCN(c2c(F)cc3c(=O)c(C(=O)NCCCN4CCOCC4)cn4c3c2Oc2cc3ccccc3cc2-4)C1 [compound 386]")
6.47

Challenge: Could you tell me which pIC50 is on file for O=C(NCCN1CCCC1)c1cn2c3cc4c(cc3oc3c(NCCN5CCCC5)c(F)cc(c1=O)c32)c(=O)c1ccccc14 [compound 577] ?
Response given: 5.96

Challenge: Could you tell me which pIC50 is on file for NC1CCN(c2c(F)cc3c(=O)c(C(=O)NCCN4CCOCC4)cn4c3c2Oc2cc3c(cc2-4)oc2ccccc23)C1 (centres unmarked) [compound 530] ?
Response given: 6.14

Challenge: Could you tell me which pIC50 is on file for N[C@H]1CCN(c2c(F)cc3c(=O)c(C(=O)NCCN4CCCC4)cn4c3c2Oc2ccccc2-4)C1 [compound 109] ?
Response given: 6.51

###

- Tested on: panel of cancer cell-lines
- METHOD_DESCRIPTION: MTS cell survival assay, panel of cancer cell-lines
- Format: cell-based
- MEASUREMENT_SETUP: Homo sapiens, MIA PaCa-2, 96 h; MiaPaca, 4 days, MTS
MEASUREMENT_NAME: IC50 (µM)
The figure you give is taken to be in µM; do not add the unit.

Challenge: Could you tell me which IC50 is on file for CN1CCCC1CCNC(=O)c1cn2c3c(c(N4CCC(c5cnccn5)C4)c(F)cc3c1=O)Oc1cc3ccccc3cc1-2 (stereo not shown) ?
Response given: 2.8

###

- METHOD_DESCRIPTION: Pharmacokinetic study in mice, intravenous
- Format: in vivo
- MEASUREMENT_SETUP: male, Balb/c, mouse, plasma, 25 mg/kg intravenous, read-out: Vdss
MEASUREMENT_NAME: Vd (L/kg)
The figure you give is taken to be in L/kg; do not add the unit.

Challenge: Could you tell me which Vd is on file for CN1CCCC1CCNC(=O)c1cn2c3c(c(N4CCC(c5cnccn5)C4)c(F)cc3c1=O)Oc1cc3ccccc3cc1-2 (stereo not shown) [CX-3543] ?
Response given: 7.26

###

- TESTED_ON: c-Myc template DNA (c-myc quadruplex)
- METHOD_DESCRIPTION: Quadruplex binding / stop assay (Taq polymerase arrest, capillary electrophoresis)
- MEASUREMENT_SETUP: read-out: Stop Data c-Myc μM; concentration at which 50% of the DNA was arrested (arrested:full-length 1:1)
MEASUREMENT_NAME: IC50

Recorded results for 4 compounds are shown here.
>>> value("CN1CCCC1CCNC(=O)c1cn2c3c(c(N4CCNC(c5cccnc5)C4)c(F)cc3c1=O)Oc1cc3ccccc3cc1-2 (stereo not shown)")
"1.75 µM"
>>> value("O=C(NCCN1CCCC1)c1cn2c3c(c(N4CC5CCCNC5C4)c(F)cc3c1=O)Oc1cc3ccccc3cc1-2 (stereo not shown) [compound 545]")
"0.375 µM"
>>> value("O=C(NCCN1CCCC1)c1cn2c3c(c(NCCCN4CCOCC4)ccc3c1=O)Oc1cc3ccccc3cc1-2")
"1.75 µM"
>>> value("CN1CCN(CCCNC(=O)c2cn3c4c(c(N5CC[C@@H](NC(=O)OC(C)(C)C)C5)c(F)cc4c2=O)Oc2cc4ccccc4cc2-3)CC1")
"2.5 µM"

Challenge: Request - read-out IC50 | tested on c-Myc template DNA (c-myc quadruplex) | compound "CC(C)(C)OC(=O)N[C@@H]1CCN(c2c(F)cc3c(=O)c(C(=O)NCCCN=C(N)N)cn4c3c2Oc2cc3ccccc3cc2-4)C1"
Response given: 0.75 µM

Challenge: Request - read-out IC50 | tested on c-Myc template DNA (c-myc quadruplex) | compound "N[C@H]1CCN(c2c(F)cc3c(=O)c(C(=O)NCCCN4CCOCC4)cn4c5cc6c(cc5oc2c34)c(=O)c2ccccc26)C1"
Response given: 0.375 µM

Challenge: Request - read-out IC50 | tested on c-Myc template DNA (c-myc quadruplex) | compound CN1CCCC1CCNC(=O)c1cn2c3c(c(NCCC4CCCN4C)ccc3c1=O)Oc1cc3ccccc3cc1-2 (stereo not shown)
Response given: 0.75 µM

Challenge: Request - read-out IC50 | tested on c-Myc template DNA (c-myc quadruplex) | compound "CN(C)CCCCNc1c(F)cc2c(=O)c(C(=O)NCCCN3CCOCC3)cn3c4cc5oc6cc([N+](=O)[O-])ccc6[nH]c5cc4oc1c23"
Response given: 0.375 µM

Challenge: Request - read-out IC50 | tested on c-Myc template DNA (c-myc quadruplex) | compound Cc1ncn(C(=O)c2cn3c4c(c(N5CCC(NC(=O)OC(C)(C)C)C5)c(F)cc4c2=O)Oc2cc4ccccc4cc2-3)c1CO (stereo not shown)
Response given: 1.75 µM

###

A collection of compounds and their measured IC50
- TESTED_ON: c-Myc template DNA (c-myc quadruplex)
- METHOD_DESCRIPTION: Quadruplex binding / stop assay (Taq polymerase arrest, capillary electrophoresis)
- MEASUREMENT_SETUP: read-out: Stop Data c-Myc μM; concentration at which 50% of the DNA was arrested (arrested:full-length 1:1)
The figure you give is taken to be in µM; do not add the unit.

>>> value("CN1CCCC1CCNC(=O)c1cn2c3c(c(NCCc4ccc(O)cc4)c(F)cc3c1=O)Oc1cc3ccccc3cc1-2 (stereo not shown)")
0.75
>>> value("CN(C)CCCCNC(=O)c1cn2c3c(c(NCCCN4CCN(C)CC4)c(F)cc3c1=O)Oc1cc3ccccc3cc1-2")
0.75
>>> value("NC1CCN(c2c(F)cc3c(=O)c(C(=O)NCCCN4CCOCC4)cn4c5cc6c(=O)c7ccccc7c(=O)c6cc5oc2c34)C1 (stereo not shown)")
0.375
>>> value("CC(C)(C)OC(=O)NC1CCN(c2c(F)cc3c(=O)c(C(=O)NCCN4CCCC4)cn4c3c2Oc2cc3c(cc2-4)oc2ccccc23)C1 (stereo not shown)")
0.75
>>> value("CN(C)CCCCNc1c(F)cc2c(=O)c(C(=O)NCCN3CCCC3)cn3c4cc5oc6cc([N+](=O)[O-])ccc6[nH]c5cc4oc1c23")
0.18
>>> value("CN1CCN(CCC(=O)N[C@@H]2CCN(c3c(F)cc4c(=O)c(C(=O)NCCN5CCCC5)cn5c4c3Oc3cc4c(cc3-5)oc3ccccc34)C2)CC1")
0.375
>>> value("O=C(NCCC1CCCN1)c1cn2c3c(c(NCCCN4CCOCC4)c(F)cc3c1=O)Oc1cc3c(cc1-2)oc1ccccc13 (stereo not shown)")
0.32
>>> value("CN1CCCC1CCNC(=O)c1cn2c3c(c(NC[C@H]4CCCO4)c(F)cc3c1=O)Oc1cc3ccccc3cc1-2 (stereo partly shown) [compound 34]")
3
>>> value("CN1CCN(C(=O)c2cn3c4c(c(N5CC[C@@H](N)C5)c(F)cc4c2=O)Oc2c-3ccc3ccccc23)CC1")
2.5
>>> value("CN1CCN(CCCNC(=O)c2cn3c4c(c(NCCCN5CCOCC5)c(F)cc4c2=O)Oc2cc4c(cc2-3)oc2ccccc24)CC1")
1.75

Challenge: Could you tell me which IC50 is on file for CN1CCN(CCCNC(=O)c2cn3c4c(c(NCCC5CCCN5C)c(F)cc4c2=O)Oc2cc4ccccc4cc2-3)CC1 (stereo not shown) ?
Response given: 1.75

Challenge: Could you tell me which IC50 is on file for "CN(C)CCCCNC(=O)c1cn2c3c(c(NCCCN4CCN(C)CC4)c(F)cc3c1=O)Oc1cc3c(cc1-2)oc1ccccc13" ?
Response given: 1.75

Challenge: Could you tell me which IC50 is on file for "O=C(O)c1cn2c3c(c(NCCN4CCCC4)c(F)cc3c1=O)Oc1c-2ccc2ccccc12" ?
Response given: 2.5

Challenge: Could you tell me which IC50 is on file for CN1CCCC1CCNc1c(F)cc2c(=O)c(C(=O)O)cn3c2c1Oc1cc2ccccc2cc1-3 (stereo not shown) ?
Response given: 1.75

Challenge: Could you tell me which IC50 is on file for "CN(C)CCCCNc1c(F)cc2c(=O)c(C(=O)O)cn3c2c1Oc1c-3ccc2ccccc12" ?
Response given: 1.76

Challenge: Could you tell me which IC50 is on file for CN1CCCC1CCNC(=O)c1cn2c3c(c(NCCN4CCCC4)c(F)cc3c1=O)Oc1c-2ccc2ccccc12 (stereo not shown) ?
Response given: 1.75
